# Test system: Oryza sativa, (L.) Tebonnet
# assay-info: Rice tolerance to post-transplant applications under flooded paddy conditions (Example 187), ORYSAT (Rice, Tebonnet); note: meaning of each grade not given here
# run-conditions: Rate 0.0620 kg/ha, rated three to four weeks after treatment
In this section we review reported herbicidal effect rating ORYSAT values for a set of compounds.
Please give the numeric answer without any surrounding text.

Use the examples below as a reference point.
Inquiry: Quick one: herbicidal effect rating ORYSAT of Cn1c(C(F)(F)F)cc(=O)n(-c2ccc3snc(C(C)(Br)Br)c3c2)c1=O ?
Reply text: 6.0

Inquiry: Here is the next compound: CCSCCOC(=O)c1nsc2ccc(-n3c(=O)cc(C(F)(F)F)n(C)c3=O)cc12
Reply text: 5.0

Next:
Inquiry: Quick one: herbicidal effect rating ORYSAT of CSc1ccc(C)cc1-c1nsc2ccc(-n3c(=O)cc(C(F)(F)F)n(C)c3=O)cc12 ?
Reply text: 0.0

Inquiry: Here is the next compound: CC(Oc1ccccc1-c1nsc2ccc(-n3c(=O)cc(C(F)(F)F)n(C)c3=O)cc12)C(=O)NS(C)(=O)=O (stereo not drawn)
Reply text: 4.0

Inquiry: Here is the next compound: CCS(=O)(=O)NC(=O)c1nsc2ccc(-n3c(=O)cc(C(F)(F)F)n(C)c3=O)cc12
Reply text: 4.5
